assay: Cytotoxicity against human RXF 486L cells assessed as inhibition of cell proliferation by propidium iodide assay; type: functional, cell-based
pIC50: −log10 of the molar value.
Endpoint Name: pIC50

>>> val("C/C=C(\\C)[C@H](O[C@@H]1O[C@H](CO)[C@@H](O)[C@H](O)[C@H]1O)[C@H](C)/C=C(C)/C=C/C/C(C)=C/Cc1nc(OC)cc(O)c1C")
5.70

* * *

tested on: DU-145; experiment: Cytotoxicity against human DU-145 cells assessed as inhibition of cell proliferation by propidium iodide assay; assay type: functional, cell-based
Endpoint Name: IC50 (µM)

>>> val("C/C=C(\\C)[C@H](O[C@@H]1O[C@H](CO)[C@@H](O)[C@H](O)[C@H]1O)[C@H](C)/C=C(C)/C=C/C/C(C)=C/Cc1nc(OC)cc(O)c1C")
2
